# protocol text: The drug is tested on Z-014 corresponding to rat gut metagenome with ENA study accession number: PRJEB37062 and ENA sample accession number: ERS12561814 for biotransformation under anaerobic condition. The drug concentrations were measured over 9 timepoints collected between 0 and 24 hours of incubation by liquid-chromatography-coupled mass spectrometry (LC–MS); also: call rule not given here
# measurement context: 2 µM
measurement kind: Bacterial Biotransformation

CCOC(=O)C1=C[C@]2(CC)CCCN3CCc4c(n1c1ccccc41)[C@@H]32 | Compound NOT metabolized
CN(C)C(=O)Oc1cccc([N+](C)(C)C)c1.[Br-] [NEOSTIGMINE BROMIDE] | Compound NOT metabolized
CC(=O)OCC(=O)NCCCOc1cccc(CN2CCCCC2)c1 [ROXATIDINE ACETATE] | Compound metabolized
CCOc1ccccc1OCCN[C@H](C)Cc1ccc(OC)c(S(N)(=O)=O)c1.Cl [TAMSULOSIN HYDROCHLORIDE] | Compound NOT metabolized
CC(C)NCC(O)COc1ccc(CC(N)=O)cc1 (stereo unspecified) | Compound NOT metabolized

The record that follows has no Bacterial Biotransformation shown yet.
QUERY: Value lookup for Bacterial Biotransformation; key = CC(C)C[C@H]1C(=O)N2CCC[C@H]2[C@]2(O)O[C@](NC(=O)[C@@H]3C=C4c5cccc6[nH]c(Br)c(c56)C[C@H]4N(C)C3)(C(C)C)C(=O)N12.CS(=O)(=O)O [BROMOCRIPTINE MESYLATE]
RESULT: Compound metabolized
